Hey, just so you know, these numbers are from patent US8557816B2.

# Assay system: AuroraB (Homo sapiens)
# Construct: 20 μL of AuroraB FL H is for a final volume of 41 μL; His
# Test name: AuroraB Homogeneous Time Resolved Fluorescent (HTRF) kinase assay
# Format: biochemical
# Particulars: average; read-out: AurB_IC50_IP (uM Avg)
Quantity: IC50 (µM)

Consider the worked cases shown below.
Structure smiles string	Unit string	IC50
COc1cnc2c(Oc3ccc(Nc4nnc(-c5cc(C)cs5)c5ccccc45)cc3OC)ccnc2c1	µM	0.041
Clc1ccc(-c2nnc(Nc3ccc(Oc4cnnc5ccc(Br)cc45)cc3)c3ccccc23)cc1	µM	3
c1ccc(-c2nnc(Nc3ccc(Sc4ccnc5[nH]ccc45)cc3)c3ccccc23)cc1	µM	0.009
COc1cnc2c(Oc3ccc(Nc4nnc(-c5cc6ccccc6s5)c5ccccc45)cc3)ccnc2c1	µM	0.015

A: CCc1cc(-c2ccccc2)nnc1Nc1ccc(Oc2ccnc3cc(OC)cnc23)cc1
B: c1ccc(-c2nnc(Nc3ccc(Oc4ccnc5c4NCCC5)cc3)c3ccccc23)cc1
Dear colleague, could you let me know whether A or B has the lower recorded IC50? Thanks. Your answer should be the label of the entry you select. A
(A: 0.004 µM, B: 0.031 µM)

P: COc1cnc2c(Oc3ccc(Nc4nnc(-c5ccc(C)nc5F)c5ccccc45)cc3)ccnc2c1
Q: COc1ccc2c(Cc3ccc(Nc4nnc(-c5ccc(Cl)cc5)c5ccccc45)cc3)ccnc2c1
R: CCc1cc(-c2ccc(C)cc2)nnc1Nc1ccc(Sc2ccnc3cccnc23)cc1
S: Oc1ccc2nccc(Sc3ccc(Nc4nnc(-c5ccc(Cl)cc5)c5ccccc45)cc3)c2c1
rank_up(items): orders items by reported IC50 in ascending numerical order. I would appreciate it if you listed the labels in the requested order. P, S, R, Q
(P: 0.002 µM, S: 0.003 µM, R: 0.006 µM, Q: 0.032 µM)

----------
# Assay system: AuroraB (Homo sapiens, UniProt Q96GD4)
# Construct: 20 μL of AuroraB FL H is for a final volume of 41 μL; His
# Sequence (Q96GD4 whole entry): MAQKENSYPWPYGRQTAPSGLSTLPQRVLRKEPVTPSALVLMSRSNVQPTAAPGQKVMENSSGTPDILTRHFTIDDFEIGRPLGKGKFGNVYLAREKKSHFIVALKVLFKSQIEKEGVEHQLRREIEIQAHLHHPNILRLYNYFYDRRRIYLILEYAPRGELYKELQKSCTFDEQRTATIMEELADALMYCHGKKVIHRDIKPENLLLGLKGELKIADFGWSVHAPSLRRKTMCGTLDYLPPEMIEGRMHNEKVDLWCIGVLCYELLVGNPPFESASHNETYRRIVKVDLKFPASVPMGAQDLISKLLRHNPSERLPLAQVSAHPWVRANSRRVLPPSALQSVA
# Test name: AuroraB Homogeneous Time Resolved Fluorescent (HTRF) kinase assay
# Type: biochemical
# Particulars: average; read-out: AurB_IC50_IP (uM Avg)
Quantity: IC50 (µM)

Compound	Reported value
COc1cnc2c(Oc3ccc(Nc4nnc(-c5cc(C)cs5)c5ccccc45)cc3)ccnc2c1	0.006
CCc1cc(-c2ccc(C)cc2)nnc1Nc1ccc(Oc2ccnc3cc(OC)cnc23)cc1 [compound 307]	0.006
COc1cnc2c(Nc3ccc(Nc4nnc(-c5ccccc5)c5ccccc45)cc3)ccnc2c1	0.007
COc1cnc2c(Oc3ccc(Nc4nnc(-c5ccc(C)c(Cl)c5)c5ccccc45)cc3)ccnc2c1	0.011

1: CCc1cc(N2CC[C@H]3CCCC[C@@H]3C2)nnc1Nc1ccc(Oc2ccnc3cc(OC)cnc23)cc1 [compound 320]
2: COc1cnc2c(Sc3ccc(Nc4nnc(N5CCC(N6CCCC6)CC5)c5ccccc45)cc3)ccnc2c1
3: COc1cnc2c(Sc3ccc(Nc4nnc(-c5ccc6cn(C)nc6c5)c5ccccc45)cc3)ccnc2c1
4: COc1cnc2c(Sc3ccc(Nc4nnc(-c5cccc(C)n5)c5ccccc45)cc3)ccnc2c1
Reorder the items by IC50, least to greatest. Please express your ranking as an ordered list of the labels. 3, 4, 2, 1
(3: 0.009 µM, 4: 0.015 µM, 2: 0.045 µM, 1: 0.067 µM)

----------
# Assay system: AuroraB (Homo sapiens, UniProt Q96GD4)
# Construct: 20 μL of AuroraB FL H is for a final volume of 41 μL; His
# Test name: AuroraB Homogeneous Time Resolved Fluorescent (HTRF) kinase assay
# Format: biochemical
# Particulars: average; read-out: AurB_IC50_IP (uM Avg)
# Procedure: AuroraB-Homogeneous Time Resolved Fluorescent (HTRF) Kinase Assay: The AuroraB HTRF assay begins with AuroraB in the presence of ATP phosphorylating the biotinylated peptide Histone H3. […] The assay is quenched and stopped with 160 μL of detection reagent. […] Added to this buffer prior to reading is Steptavidin allophycocyanin (SA-APC) at a final conc in the assay of 0.001 mg/mL, and europilated anti-phosphoHistoneH3 Ab (Eu-anti-HisH3) at a final conc of 0.064 nM. […]
Quantity: IC50 (µM)

Compound	Reported value
Cc1noc(-c2cc3nccc(Sc4ccc(Nc5nnc(-c6ccccc6)c6ccccc56)cc4)c3s2)n1 [compound 303]	0.07
COc1cnc2c(Oc3ccc(Nc4nnc(-c5ccccc5)c5ccccc45)cc3)ccnc2c1	0.008
Oc1cnc2c(Oc3ccc(Nc4nnc(-c5ccc(Cl)cc5)c5ccccc45)cc3)ccnc2c1	0.005
Clc1ccc(-c2nnc(Nc3ccc(Sc4ccnc5ccccc45)cc3)c3ccccc23)cc1	0.036
c1ccc(-c2nnc(Nc3ccc(Oc4ncnc5nc[nH]c45)cc3)c3ccccc23)cc1	0.129
COc1cnc2c(Sc3ccc(Nc4nnc(N5CCCC(C)(C)C5)c5ccccc45)cc3)ccnc2c1	0.105
c1ccc(-c2nnc(Nc3ccc(Oc4ccnc5ccnn45)cc3)c3ccccc23)cc1	0.594
COc1ccc2c(C(C)c3ccc(Nc4nnc(-c5ccc(Cl)cc5)c5ccccc45)cc3)ccnc2c1 (stereo not drawn)	0.243
CCc1cc(-c2ccccc2)nnc1Nc1ccc(Oc2ccnc3cc(C(N)=O)ccc23)cc1	0.001
COc1cc2nccc(Sc3ccc(Nc4nnc(-c5ccc(Cl)cc5)c5ccccc45)cc3)c2cn1	0.009

a: Clc1ccc(-c2nnc(Nc3ccc(Oc4ccnc5cc(OCc6ccccc6)cnc45)cc3)c3ccccc23)cc1
b: COc1cnc2c(Oc3ccc(Nc4nnc(-c5cccc(CO)n5)c5ccccc45)cc3)ccnc2c1
c: COc1cc2nccc(Oc3ccc(Nc4nnc(-c5ccc(C)cc5)c5ccccc45)cc3)c2cc1C(N)=O
d: COc1cnc2c(Sc3ccc(Nc4nnc(-c5ccc(Cl)cc5)c5ccccc45)cc3)ccnc2c1
Ranking field: IC50; order: falling. # list labels per requested ordering a, d, b, c
(a: 0.033 µM, d: 0.015 µM, b: 0.005 µM, c: 0.001 µM)

a: COc1ccc2nccc(Sc3ccc(Nc4nnc(N5CCCCC5)c5ccccc45)cc3)c2n1
b: Cc1ccsc1-c1nnc(Nc2ccc(Oc3ccnc4cc(C#N)ccc34)cc2)c2ccccc12
Among a and b , whose measured IC50 is the smaller figure? // respond with label for picked entry b

A: Brc1ccc2nccc(Oc3ccc(Nc4nnc(-c5ccccc5)c5ccccc45)cc3)c2c1
B: COc1ccc2nccc(Oc3ccc(Nc4nnc(-c5cc(C)cs5)c5ccccc45)cc3)c2c1
Please indicate which item has the smaller measured IC50: A versus B Give the label under which the chosen entry appears. B
(B: 0.006 µM, A: 0.024 µM)
